# System: A549 NSCLC
# Procedure Summary: NCI tumour cell line growth inhibition, 48 h
Observation Type: TGI

Some entries whose results are on file:
- Compound Smiles: "CN(C)CCCNc1c2ccc(Cl)cc2nc2c1oc1ccc(Cl)cc12"
  Result Value: "3.18 µM"
- Compound Smiles: "O=c1oc2ccc(-c3ccc(F)cc3F)cc2c(=O)n1-c1cccc(C(F)(F)F)c1"
  Result Value: "> 50 µM"
- Compound Smiles: "C[C@@H](Nc1c(C#N)cnc2ccc(-c3cnc(Cl)c(NS(C)(=O)=O)c3)cc12)c1ccccc1"
  Result Value: "6.47 µM"

From here, focus on the item given below.
The compound CCc1cc(OC(=O)N2CCC(N3CCCCC3)CC2)ccc1Nc1cc(-c2ccc(-n3cccn3)cc2)[nH]n1 on A549 NSCLC: TGI was 2.66 µM

###

Quick reference for TGI among some molecules
# System: BT-549 breast
# Procedure Summary: NCI tumour cell line growth inhibition, 48 h
Answer format: numeric, µM implied, no suffix.

Some entries whose results are on file:
- Compound Smiles: "CN(C)CCCNc1c2ccc(Cl)cc2nc2c1oc1ccc(Cl)cc12"
  TGI / µM: 25
- Compound Smiles: "CCc1cc(OC(=O)N2CCC(N3CCCCC3)CC2)ccc1Nc1cc(-c2ccc(-n3cccn3)cc2)[nH]n1"
  TGI / µM: 2.95

Consider O=c1oc2ccc(-c3ccc(F)cc3F)cc2c(=O)n1-c1cccc(C(F)(F)F)c1 . Its measured TGI is 6.77
